# credit: ChEMBL document CHEMBL5058577

- System: Fibroblast
- ASSAY TEXT: Multiplex assay against human fibroblast
- Assay type: toxicity, cell-based
- APPLIED CONDITIONS: 12 h, 10 µM, compound concentration 10 uM, replicate 2
Lab note - cut at 90% for Population Normal (%): condition met if strictly below, condition not met if not.

Below are worked cases with known answers.
[[record]]
molecule = "O=C(NCCN1CCC(n2c(=O)[nH]c3cc(Cl)ccc32)CC1)c1ccc(F)cc1 [HALOPEMIDE]"
group_label = "condition not met"

[[record]]
molecule = "O=C(CCCc1ccccc1)Nc1nc2ccccc2c(=O)s1"
group_label = "condition met"

[[record]]
molecule = "CC(C)COc1ccc(CNC(=O)N(Cc2ccc(F)cc2)C2CCN(C)CC2)cc1 [PIMAVANSERIN]"
group_label = "condition not met"

[[record]]
molecule = "CC(C)(C)c1cc(NC(=O)Nc2ccc(-c3cn4c(n3)sc3cc(OCCN5CCOCC5)ccc34)cc2)no1 [QUIZARTINIB]"
group_label = "condition not met"

[[record]]
molecule = "COC[C@@H](c1ccc(C(F)(F)F)cc1)N1CCN(C2(C)CCN(C(=O)c3c(C)ncnc3C)CC2)C[C@@H]1C.O=C(O)/C=C\\C(=O)O [VICRIVIROC MALEATE]"
group_label = "condition met"


Please let me know if CC(=O)Nc1cccc2c1c(Sc1ccc(Cl)cc1)c(C)n2CC(=O)O [AZD1981] shows Population Normal (%) below 90%.
condition not met

Please let me know if Cc1c(CC(=O)O)c2cccnc2n1Cc1ccc(S(C)(=O)=O)cc1C(F)(F)F [FEVIPIPRANT] shows Population Normal (%) below 90%.
condition not met
